Known OD450 of a selection of binders
target_or_system: T1, murine TIM-3 protein with hFc tag (mTIM-3-hFc protein) (mouse; human, UniProt Q8VIM0 29-191)
T1 construct: Made in HEK293 cells; also called mouse TIM-3 extracellular domain protein; not shown: human IgG Fc fragment (hFc) of the pCpC vector
T1 chain: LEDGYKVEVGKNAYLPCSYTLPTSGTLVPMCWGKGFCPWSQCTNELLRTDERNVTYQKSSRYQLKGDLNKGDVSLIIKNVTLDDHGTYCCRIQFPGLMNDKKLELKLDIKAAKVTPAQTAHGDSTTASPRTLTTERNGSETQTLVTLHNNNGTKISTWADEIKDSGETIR
test_protocol: ELISA, coated mTIM-3-hFc; antibody 0 nM (blank)
Description: The amino acid sequence 22-200 of the extracellular domain of the human TIM-3 protein described in the step of Example 1 (as shown in SEQ ID NO. 71 in the sequence listing) was cloned into a pCpC vector having a human IgG Fc fragment (hFc), and transfected into HEK293 cells. […] An ELISA plate reader (TiterMax 384plus, Molecular Device) was used to read the A450 nm value.
// keep it numeric: no unit symbol after the value

34B6D8 (TIM-3 antibody purified from hybridoma, chimeric antibody of Example 2) (antibody, V domains shown, From hybridoma of Harbour H2L2 transgenic mice: human variable regions, rat constant regions) VH: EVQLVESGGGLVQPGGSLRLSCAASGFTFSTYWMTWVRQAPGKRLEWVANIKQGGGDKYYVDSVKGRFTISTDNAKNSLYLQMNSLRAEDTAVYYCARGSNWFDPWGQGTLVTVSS VL: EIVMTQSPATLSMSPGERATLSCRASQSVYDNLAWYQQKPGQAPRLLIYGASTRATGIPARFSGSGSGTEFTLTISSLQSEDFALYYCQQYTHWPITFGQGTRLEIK :: 0.66
57F4E5 (TIM-3 antibody purified from hybridoma, chimeric antibody of Example 2) (antibody, V domains shown, From hybridoma of Harbour H2L2 transgenic mice: human variable regions, rat constant regions) VH: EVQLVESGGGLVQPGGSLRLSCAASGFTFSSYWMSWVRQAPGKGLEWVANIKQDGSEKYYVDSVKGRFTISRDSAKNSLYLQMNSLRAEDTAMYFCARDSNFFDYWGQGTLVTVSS VL: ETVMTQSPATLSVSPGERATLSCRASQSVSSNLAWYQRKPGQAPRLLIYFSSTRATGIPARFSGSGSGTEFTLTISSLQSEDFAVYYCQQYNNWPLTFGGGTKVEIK :: 0.64
7A4F10 (TIM-3 antibody purified from hybridoma, chimeric antibody of Example 2) (antibody, V domains shown, From hybridoma of Harbour H2L2 transgenic mice: human variable regions, rat constant regions) VH: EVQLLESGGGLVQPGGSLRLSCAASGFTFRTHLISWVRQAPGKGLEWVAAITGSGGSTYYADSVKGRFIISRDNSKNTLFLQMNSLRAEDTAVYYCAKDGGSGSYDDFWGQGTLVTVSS VL: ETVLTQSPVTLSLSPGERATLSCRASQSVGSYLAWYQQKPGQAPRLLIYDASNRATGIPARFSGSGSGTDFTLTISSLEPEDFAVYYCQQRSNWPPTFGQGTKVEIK :: 0.63
39E5H1 (TIM-3 antibody purified from hybridoma, chimeric antibody of Example 2) (antibody, V domains shown, From hybridoma of Harbour H2L2 transgenic mice: human variable regions, rat constant regions) VH: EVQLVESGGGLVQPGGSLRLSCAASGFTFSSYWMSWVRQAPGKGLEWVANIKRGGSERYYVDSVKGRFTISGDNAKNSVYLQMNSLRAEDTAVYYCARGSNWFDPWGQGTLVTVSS VL: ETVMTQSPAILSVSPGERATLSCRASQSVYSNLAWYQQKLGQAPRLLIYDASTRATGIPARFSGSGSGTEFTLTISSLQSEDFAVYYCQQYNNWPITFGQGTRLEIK :: 0.62
134H3G6 (TIM-3 antibody purified from hybridoma, chimeric antibody of Example 2) (antibody, V domains shown, From hybridoma of Harbour H2L2 transgenic mice: human variable regions, rat constant regions) VH: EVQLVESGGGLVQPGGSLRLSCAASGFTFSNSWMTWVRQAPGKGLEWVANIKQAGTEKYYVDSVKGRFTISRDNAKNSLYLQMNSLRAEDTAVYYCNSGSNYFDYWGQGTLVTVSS VL: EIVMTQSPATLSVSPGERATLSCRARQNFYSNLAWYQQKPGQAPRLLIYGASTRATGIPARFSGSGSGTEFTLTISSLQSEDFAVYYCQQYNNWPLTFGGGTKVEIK :: 0.64

For the next question, use this binder.
Documented OD450 of 18D2H2 (TIM-3 antibody purified from hybridoma, chimeric antibody of Example 2) (antibody, V domains shown, From hybridoma of Harbour H2L2 transgenic mice: human variable regions, rat constant regions) VH: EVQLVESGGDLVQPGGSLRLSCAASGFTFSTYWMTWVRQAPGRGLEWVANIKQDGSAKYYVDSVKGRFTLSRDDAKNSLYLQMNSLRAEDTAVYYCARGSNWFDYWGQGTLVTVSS VL: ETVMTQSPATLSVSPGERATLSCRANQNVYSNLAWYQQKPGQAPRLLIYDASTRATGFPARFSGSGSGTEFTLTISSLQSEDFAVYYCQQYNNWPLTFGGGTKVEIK : 0.62
